Data credit: patent US12398154B2

# Tested on: pERK in ASPC1 cells
# assay details: Inhibition of KRas phosphorylation of ERK (Cisbio HTRF pERK assay)
# measurement parameters: Homo sapiens, ASPC1, read-out: Inhibition (HTRF IC50) of KRas-mediated Phosphorylation of ERK, AsPC-1
property: IC50 (µM)

INSERT INTO assay_data (compound, value_units, val) VALUES
  ('CCc1c(F)ccc2cc(O)cc(-c3ncc4c(N5CCCCCC(S(C)(=O)=O)C5)nc(OC[C@@]56CCCN5C[C@H](F)C6)nc4c3F)c12 (stereo partly drawn)', 'µM', 0.054);

A: CCc1c(F)ccc2cc(O)cc(-c3ncc4c(N5CCCC(N6CCCS6(=O)=O)C5)nc(OC[C@@]56CCCN5C[C@H](F)C6)nc4c3F)c12 (stereo partly drawn)
B: CCc1c(F)ccc2cc(O)cc(-c3ncc4c(N5CCOCC(CO)C5)nc(OC[C@@]56CCCN5C[C@H](F)C6)nc4c3F)c12 (stereo partly drawn)
C: CCc1c(F)ccc2cc(O)cc(-c3ncc4c(N5CCC[C@@](C)(O)C5)nc(OC[C@@]56CCCN5[C@H](COC(=O)N(C)C)CC6)nc4c3F)c12
D: CCc1c(F)ccc2cc(O)cc(-c3ncc4c(N5CCCOCC5)nc(OC[C@@]56CCCN5C[C@H](F)C6)nc4c3F)c12
### Prompt Order the 4 compounds from highest to lowest IC50. Would you mind listing the labels in the order requested?
### Response A, B, D, C
(A: 0.275 µM, B: 0.065 µM, D: 0.02 µM, C: 0.009 µM)

###

pIC50: −log10 of the molar value.
Observed pIC50, system KRas WT (Homo sapiens).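 Also: binding to KRas read as TR-FRET displacement after a one-hour room-temperature incubation, IC50 derived from percent-of-control values.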
property: pIC50

INSERT INTO measurements (compound, val) VALUES
  ('Fc1c(-c2cccc3cccc(F)c23)ncc2c(N3CCCC4(CC4)C3)nc(OCC34CCCN3CCC4)nc12 [Example 114]', 5.57),
  ('NS(=O)(=O)CC1CCCN(c2nc(OCC34CCCN3CCC4)nc3c(F)c(-c4cccc5cccc(C(F)F)c45)ncc23)C1 (centres unmarked) [Example 463]', 5.62);

1: Fc1c(-c2cccc3cccc(F)c23)ncc2c(NCCCn3ccnn3)nc(OCC34CCCN3CCC4)nc12 [Example 118]
2: CCc1c(F)ccc2cc(O)cc(-c3ncc4c(N5CCC[C@@](C)(O)C5)nc(OC[C@@H]5CCCN5C)nc4c3F)c12 [Example 28]
### Prompt Could you determine which record has the numerically smaller pIC50? Candidates: 1 and 2 Write the label of whichever entry you select.
### Response 1
(1: 5.07, 2: 8.52)

###

# target: KRas G12R (Homo sapiens, UniProt P01116, G12R);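 also: TR-FRET displacement assay of compound binding to KRas, read after one hour at room temperature, potency from a four-parameter fit of percent-of-control values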
# Sequence (P01116 1-169 isoform P01116-2 G12R): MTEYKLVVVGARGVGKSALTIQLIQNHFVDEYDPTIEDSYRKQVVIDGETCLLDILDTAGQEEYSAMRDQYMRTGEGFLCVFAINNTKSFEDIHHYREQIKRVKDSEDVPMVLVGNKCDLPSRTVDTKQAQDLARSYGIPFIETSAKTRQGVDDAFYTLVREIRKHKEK
# assay details: biochemical
property: IC50 (nM)

# count of solved cases: 3
INSERT INTO assay_data (molecule, val) VALUES
  ('CC1(O)CCCN(c2nc(OCC34CCCN3CCC4)nc3c(F)c(-c4cc(O)ccc4F)ncc23)C1 (centres unmarked)', 8250),
  ('Fc1c(-c2cccc3cccc(F)c23)ncc2c(N3CCSCC3)nc(OCC34CCCN3CCC4)nc12', 22700),
  ('Fc1c(-c2cccc3cccc(F)c23)ncc2c(N3CCCCC3)nc(OCC34CCCN3CCC4)nc12', 10700);

a: CN(CCC(N)=O)c1nc(OCC23CCCN2CCC3)nc2c(F)c(-c3cccc4cccc(F)c34)ncc12
b: CCc1c(F)ccc2cc(O)cc(-c3ncc4c(N5CCCC(O)(C(F)F)C5)nc(OC[C@@]56CCCN5C[C@H](F)C6)nc4c3F)c12 (some centres unmarked)
c: CCc1c(F)ccc2cc(O)cc(-c3ncc4c(N5CCC[C@@H](O)[C@@H]5C)nc(OC[C@@]56CCCN5C[C@H](F)C6)nc4c3F)c12
d: CCc1c(F)ccc2cc(O)cc(-c3ncc4c(NCCN5CC(=O)NC5=O)nc(OC[C@@]56CCCN5C[C@H](F)C6)nc4c3F)c12
e: OC1CC2(CCCN(c3nc(OCC45CCCN4CCC5)nc4c(F)c(-c5cccc6cccc(F)c56)ncc34)C2)C1 (centres unmarked)
### Prompt # rank by IC50, ascending (min first) Form entry: labels listed in requested order.
### Response b, c, d, e, a
(b: 3 nM, c: 9 nM, d: 25 nM, e: 2870 nM, a: 51900 nM)

1: OCC1CN(c2nc(OCC34CCCN3CCC4)nc3c(F)c(-c4cccc5cccc(F)c45)ncc23)CCC1O (centres unmarked)
2: Cc1cccc2cccc(-c3ncc4c(N5CCCC6(C5)NC(=O)NC6=O)nc(OCC56CCCN5CCC6)nc4c3F)c12 (centres unmarked)
### Prompt Kindly identify which of 1 and 2 has the larger recorded IC50 value. Pick one and reply with its label.
### Response 1
(1: 10100 nM, 2: 61 nM)

A: CCc1c(F)ccc2cc(O)cc(-c3ncc4c(N5CCC[C@](C)(O)C5)nc(OC[C@@H]5C[C@@H](OC(=O)NC)CN5C)nc4c3F)c12
B: Cc1cc2[nH]ncc2c(-c2ncc3c(N4CCCC5(CNS(=O)(=O)N5)C4)nc(OCC45CCCN4CCC5)nc3c2F)c1C (centres unmarked)
### Prompt Param metric = IC50; output whichever of A , B has the minimum value. // caller expects the label of the chosen entry
### Response B
(B: 3 nM, A: 354 nM)
